Tested on: Coxsackievirus B3
TEST NAME: Antiviral activity against Coxsackievirus B3 infected in african green monkey vero cells assessed as inhibition of viral replication by Reed-Muench analysis
Format: functional, organism-based
STATED CONDITIONS: Enterovirus B
pIC50: −log10 of the molar value.
MEASUREMENT TYPE: pIC50

{"columns": ["SMILES TEXT", "MEASUREMENT TARGET", "RESULT VALUE"],
 "data": [
  ["COc1cc2cc[n+](CCc3ccc(F)cc3)cc2cc1OC", "Coxsackievirus B3", "< 3.49"]
]}

For every record below, what is its pIC50?
1. COc1ccc(CC[n+]2ccc3c(OC)c(OC)c(OC)cc3c2)cc1
2. COc1ccc(CC[n+]2ccc3ccc(OC)c(OC)c3c2)cc1
3. COc1ccc2cc[n+](CCc3ccccc3)cc2c1O
4. COc1ccc(CC[n+]2ccc3ccc(OC)c(O)c3c2)cc1
5. Oc1ccc2cc[n+](CCc3ccc(F)cc3)cc2c1
6. COc1cc2cc[n+](CCc3ccccc3)cc2cc1OC
7. COc1cc2cc[n+](CCc3cccc(Cl)c3)cc2cc1OC
8. c1ccc(CC[n+]2ccc3ccc4c(c3c2)OCO4)cc1

1. < 4.97
2. < 4.94
3. 4.04
4. < 3.97
5. < 3.47
6. < 3.47
7. < 4.47
8. 4.52

For every record below, what is its pIC50?
1. COc1cc2c[n+](CCc3ccccc3C)ccc2cc1O
2. Fc1ccc(CC[n+]2ccc3ccc4c(c3c2)OCO4)cc1
3. COc1cc2cc[n+](CCc3ccccc3F)cc2cc1OC
4. COc1ccc2cc[n+](CCc3ccccc3C)cc2c1O

3.95
< 3.47
< 4.27
< 3.47
